Reference source for all entries: patent US7939546B2

# target_or_system: DNMT1 (Homo sapiens, UniProt P26358)
# Sequence (P26358 whole entry): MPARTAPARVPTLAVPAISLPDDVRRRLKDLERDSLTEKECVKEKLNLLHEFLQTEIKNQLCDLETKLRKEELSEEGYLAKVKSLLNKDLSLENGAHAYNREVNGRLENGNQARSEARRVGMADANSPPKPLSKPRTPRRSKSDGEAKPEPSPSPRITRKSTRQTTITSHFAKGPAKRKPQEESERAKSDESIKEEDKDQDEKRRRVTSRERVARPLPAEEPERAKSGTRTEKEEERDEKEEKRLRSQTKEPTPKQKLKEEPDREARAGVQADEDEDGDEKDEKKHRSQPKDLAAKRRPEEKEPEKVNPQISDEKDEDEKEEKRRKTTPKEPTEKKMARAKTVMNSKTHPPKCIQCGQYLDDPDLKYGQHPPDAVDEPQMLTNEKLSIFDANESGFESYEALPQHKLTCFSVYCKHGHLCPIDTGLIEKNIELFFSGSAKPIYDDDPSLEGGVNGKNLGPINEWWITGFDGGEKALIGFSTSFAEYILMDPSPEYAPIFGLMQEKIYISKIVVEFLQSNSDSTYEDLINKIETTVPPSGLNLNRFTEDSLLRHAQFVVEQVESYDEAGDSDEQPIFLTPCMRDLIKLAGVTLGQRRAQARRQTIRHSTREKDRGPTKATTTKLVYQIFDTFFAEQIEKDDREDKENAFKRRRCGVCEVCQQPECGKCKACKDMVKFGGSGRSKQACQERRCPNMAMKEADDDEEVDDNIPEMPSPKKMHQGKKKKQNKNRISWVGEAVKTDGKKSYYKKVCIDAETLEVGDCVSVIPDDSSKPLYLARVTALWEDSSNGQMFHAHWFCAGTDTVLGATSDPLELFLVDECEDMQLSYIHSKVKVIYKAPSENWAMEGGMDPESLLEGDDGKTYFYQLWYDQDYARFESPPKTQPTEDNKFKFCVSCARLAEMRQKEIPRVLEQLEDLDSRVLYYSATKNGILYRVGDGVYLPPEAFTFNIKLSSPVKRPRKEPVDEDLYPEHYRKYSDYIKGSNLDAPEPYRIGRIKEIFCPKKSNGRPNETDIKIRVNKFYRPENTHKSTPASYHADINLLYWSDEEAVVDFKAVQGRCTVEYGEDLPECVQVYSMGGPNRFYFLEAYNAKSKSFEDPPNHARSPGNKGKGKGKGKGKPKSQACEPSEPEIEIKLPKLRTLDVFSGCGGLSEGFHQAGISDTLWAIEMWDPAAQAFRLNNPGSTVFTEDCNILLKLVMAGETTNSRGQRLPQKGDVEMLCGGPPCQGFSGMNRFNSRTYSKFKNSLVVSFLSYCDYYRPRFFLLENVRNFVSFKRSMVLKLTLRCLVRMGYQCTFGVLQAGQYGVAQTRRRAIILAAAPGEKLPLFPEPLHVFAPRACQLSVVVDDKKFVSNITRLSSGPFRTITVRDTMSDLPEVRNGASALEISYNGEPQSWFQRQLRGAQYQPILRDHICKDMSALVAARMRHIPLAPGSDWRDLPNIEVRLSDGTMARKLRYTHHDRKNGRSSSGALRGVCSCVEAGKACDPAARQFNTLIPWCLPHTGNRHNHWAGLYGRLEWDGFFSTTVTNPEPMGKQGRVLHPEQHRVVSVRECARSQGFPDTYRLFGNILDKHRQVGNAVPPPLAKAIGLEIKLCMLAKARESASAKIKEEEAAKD
# experimental_protocol: Selective depletion of DNMT1 by Western blot in treated HCT116 cells
# Format: cell-based
# Design: Protein extracts (equivalent to 100 μg) were isolated from HCT116 cells; endogenous in cells; host or cells: HCT116
# condition_label: 5 μM
Counter-ions that a name gives are not always drawn.
Hi there, I'd appreciate the recorded % DNMT1 Level for every entry that follows.
Give bare numbers, in %.

For each of the items listed, what is its % DNMT1 Level?
1. CN(C)c1ccc2c(Nc3ccc(C(=O)Nc4ccc(Nc5cc[n+](C)cc5)cc4)cc3)ccnc2c1.Cl.[Cl-]
2. CN(C)c1ccc2c(Nc3ccc(NC(=O)c4ccc(Nc5cc[n+](C)cc5)cc4)cc3)ccnc2c1.Cl.[Cl-]
3. C[n+]1ccc(Nc2ccc(C(=O)Nc3ccc(Nc4ccnc5ccccc45)cc3)cc2)cc1.Cl.[Cl-]
4. Cl.Cl.O=C(Nc1ccc(Nc2ccncc2)cc1)c1ccc(Nc2ccnc3ccccc23)cc1
5. C[n+]1ccc(Nc2ccc(C(=O)Nc3ccc(Nc4ccnc5cc([N+](=O)[O-])ccc45)cc3)cc2)cc1.Cl.[Cl-]
6. Cc1cc(Nc2ccc(NC(=O)c3ccc(Nc4ccnc5ccccc45)cc3)cc2)nc(N)n1 [Cpd. E, hydrochloride]
7. C[n+]1ccc(Nc2cccc(C(=O)Nc3ccc(Nc4ccnc5ccccc45)cc3)c2)cc1.Cl.[Cl-]
8. C[n+]1ccc(Nc2cccc(C(=O)Nc3ccc(Nc4ccnc5cc([N+](=O)[O-])ccc45)cc3)c2)cc1.Cl.[Cl-]

OUT:
136
90
131
3
97
11
31
64

For each of the items listed, what is its % DNMT1 Level?
1. C[n+]1ccc(Nc2cccc(C(=O)Nc3ccc(Nc4ccnc5cc(N)ccc45)cc3)c2)cc1.Cl.[Cl-]
2. CN(C)c1ccc2c(Nc3ccc(C(=O)Nc4cccc(Nc5cc[n+](C)cc5)c4)cc3)ccnc2c1.Cl.[Cl-]

OUT:
[49, 83]
